Entries and their inhibition at 40 µM values follow.
system: HIV-1 BaL; assay: Anti-HIV assay (luciferase, HIV-1 BaL infection); format: cell-based; settings: Human immunodeficiency virus 1, BAL, 40 μM, Experiment 2B
Expressed in %, but write only the number.

{"compound": "CCOc1ccc(Br)cc1-c1oc2ccccc2c(=O)c1O", "target.entity": "HIV-1 BaL", "readout.units": "%", "inhibition at 40 µM": 64.2}

# inhibition at 40 µM measured on HIV-1 BaL for item COc1cc(Br)cc(-c2oc3ccccc3c(=O)c2O)c1OC = -33.1

Note to self: inhibition at 40 µM of COc1ccc(Br)cc1-c1oc2ccccc2c(=O)c1O with HIV-1 BaL was -29.8

Measured inhibition at 40 µM for this entry COc1ccccc1-c1oc2ccccc2c(=O)c1O on HIV-1 BaL: -25.4

Hey, HIV-1 BaL data for COc1ccc(Br)cc1-c1cc(=O)c2c(OCc3ccccc3)cccc2o1 [Compound 11b] : inhibition at 40 µM came out at -29.2

----------
Tested on: HIV-1 BaL
Test: Anti-HIV assay (luciferase, HIV-1 BaL infection)
Type: cell-based
Conditions: 80 μM, Experiment 2B
Protocol: Assays were performed below in accordance with the procedures set forth in The Journal of Immunology, 2006, 176, pp. 6900-905; AIDS Research and Human Retroviruses, 2004, 20:11, pp. 1157-1665.^32,33 Cells were treated with 2 ng/mL p24 of HIV-1 BaL administered; MOI approx 0.02 (see refs 32, 33). Cells were treated with 2 ng/mL p24 of HIV-1 BaL administered; MOI approx 0.02 (see refs 32, 33).
reported.metric: RLU (relative luciferase units) (RLU)
Provide only the numeric value, understood in RLU.

# example entries with known answers
{"molecule": "COc1ccc(Br)cc1-c1cc(=O)c2c(OCc3ccccc3)cccc2o1 [Compound 11b]", "RLU (relative luciferase units) / RLU": 62.68}
{"molecule": "COc1ccc(Br)cc1-c1oc2ccccc2c(=O)c1O", "RLU (relative luciferase units) / RLU": 73.47}
{"molecule": "COc1ccccc1-c1oc2ccccc2c(=O)c1O", "RLU (relative luciferase units) / RLU": 59.24}

# ---- query molecule ----
Just so you know, measured RLU (relative luciferase units) for COc1cc(Br)cc(-c2oc3ccccc3c(=O)c2O)c1OC came out at 59.85

----------
system: HIV-1 BaL; assay: Anti-HIV assay (luciferase, HIV-1 BaL infection); type: cell-based; conditions: 40 μM, Experiment 2B
Recorded RLU (relative luciferase units) values for a group of compounds are listed next.
Use RLU as the unit, but write only the number.

Look over these answered cases.
{"compound": "COc1ccc(Br)cc1-c1oc2ccccc2c(=O)c1O", "target.entity": "HIV-1 BaL", "readout.units": "RLU", "RLU (relative luciferase units)": 47.61}
{"compound": "CCOc1ccc(Br)cc1-c1oc2ccccc2c(=O)c1O", "target.entity": "HIV-1 BaL", "readout.units": "RLU", "RLU (relative luciferase units)": 88.45}
{"compound": "COc1cc(Br)cc(-c2oc3ccccc3c(=O)c2O)c1OC", "target.entity": "HIV-1 BaL", "readout.units": "RLU", "RLU (relative luciferase units)": 68.82}
{"compound": "COc1ccc(Br)cc1-c1cc(=O)c2c(OCc3ccccc3)cccc2o1 [Compound 11b]", "target.entity": "HIV-1 BaL", "readout.units": "RLU", "RLU (relative luciferase units)": 49.22}

Proceed to the following item.
Short answer for COc1ccccc1-c1oc2ccccc2c(=O)c1O : RLU (relative luciferase units) was 65.50
